Reference source for all entries: PubChem BioAssay AID1851

- ASSAYED SYSTEM: Cytochrome P450 2C9 (Homo sapiens) (UniProt P11712)
- Sequence (P11712 whole entry, looked up): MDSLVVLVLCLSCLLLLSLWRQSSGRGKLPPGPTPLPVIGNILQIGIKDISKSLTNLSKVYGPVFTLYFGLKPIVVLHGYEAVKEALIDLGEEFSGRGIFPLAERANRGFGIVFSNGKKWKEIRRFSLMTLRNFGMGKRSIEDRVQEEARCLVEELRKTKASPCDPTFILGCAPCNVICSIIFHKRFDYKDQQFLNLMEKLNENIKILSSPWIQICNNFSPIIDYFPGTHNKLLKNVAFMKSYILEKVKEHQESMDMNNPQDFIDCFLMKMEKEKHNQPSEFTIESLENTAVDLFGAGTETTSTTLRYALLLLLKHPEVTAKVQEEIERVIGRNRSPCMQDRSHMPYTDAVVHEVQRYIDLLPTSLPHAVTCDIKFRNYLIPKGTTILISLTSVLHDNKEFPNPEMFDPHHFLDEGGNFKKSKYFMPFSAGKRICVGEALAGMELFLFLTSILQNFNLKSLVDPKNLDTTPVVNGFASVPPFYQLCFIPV
- PROCEDURE TEXT: Cytochrome panel assay with activity outcomes
- EXPERIMENTAL CONTEXT: recombinant CYP, pro-luciferin dealkylation, luminescence, p450-cyp2c9; series mostly up to 57.1 µM
Hit rate of the full screen: of about 16,000 compounds, about 4,000 (25%) were called active. Inconclusive results (about 26%) are left out. Calls come from the whole dose curve; as a rule, active = well fitted curve in the direction sought with a large enough effect; inconclusive = small, poorly fitted or top-dose-only effect, or effect the other way; inactive = no such curve, though single readings can be large or run the other way. These entries were drawn from the full list.
Labels: yes (1) for active, no (0) for inactive

COMPOUND | CLASSIFICATION
O=C(C(NS(=O)(=O)c1cccs1)c1ccccc1)N1CCN(c2ccccc2)CC1 (stereo unspecified) | yes (1)
Cc1nnc(SCc2nc(N)nc(Nc3ccccc3)n2)s1 | yes (1)
COc1ccccc1N1CCN(Cc2cc(=O)n3ccsc3n2)CC1 | no (0)
Cc1cc(Nc2ccccc2)nc(N)n1 | no (0)
COc1ccccc1N1CCN(C(=O)C(NS(=O)(=O)c2cccs2)c2ccccc2)CC1 (stereo unspecified) | yes (1)
O=C(CCNS(=O)(=O)c1cccs1)N1CCc2ccccc2C1 | no (0)
COCCCNC(=O)C(=O)N/N=C/c1ccc(OCC(=O)Nc2cccc(Cl)c2C)c(OC)c1 | no (0)
N#Cc1c(NC(=O)C2CC(c3ccccc3Cl)=NO2)sc2c1CCC2 (stereo unspecified) | yes (1)
O=C1CC(c2ccc(F)cc2)Cc2nc(NCC3CCCO3)ncc21 (stereo unspecified) | yes (1)
CCNc1ncc2nc(-c3cc(F)cc(F)c3)c(=O)n(C[C@H]3CCCO3)c2n1 | no (0)
Cc1cc(OCc2nc(N)nc(N)c2-c2ccc(Cl)c(Cl)c2)ccc1[N+](=O)[O-] | yes (1)

###

- ASSAYED SYSTEM: Cytochrome P450 2C9 (Homo sapiens) (UniProt P11712)
- PROCEDURE TEXT: Cytochrome panel assay with activity outcomes
- EXPERIMENTAL CONTEXT: recombinant CYP, pro-luciferin dealkylation, luminescence, p450-cyp2c9; series mostly up to 57.1 µM
The whole screen tested about 16,000 compounds, of which about 4,000 (25%) were called active. Roughly 26% stayed inconclusive and do not appear here. Calls follow the shape of the dose curve; as a rule, active = well fitted curve in the direction sought with a large enough effect; inconclusive = small, poorly fitted or top-dose-only effect, or effect the other way; inactive = no such curve, though single readings can be large or run the other way. These entries were drawn from the full list.
Outcome codes: active, inactive

COMPOUND | CLASSIFICATION
O=C(c1ccccc1)c1c[nH]c(C(=O)NCc2cccnc2)c1 | active
O=c1[nH]c(=O)n([C@@H]2C[C@H](O)[C@H](CO)O2)cc1I | inactive
CCCC/C=C/C(NC(=O)c1cccs1)c1ccccc1 (stereo unspecified) | active
CCCC/C=C/C(NC(=O)c1ccc(-c2ccccc2)cc1)c1ccccc1 (stereo unspecified) | inactive
Cc1ccccc1S(=O)(=O)c1c(C)cc(-c2ccccc2)[nH]c1=O | active
Cc1cc(OC(=O)c2ccccc2Br)cc(=O)n1C | inactive
O=[N+]([O-])c1ccc(Cl)c(-c2ccc(/C=N/c3c(-c4ccco4)nc4ccccn34)o2)c1 | inactive
CC[N+](CC)(CC)CC[C@](O)(c1ccccc1)C1CCCCC1 | inactive
C/C(=C\C1CCCCC1)C(NC(=O)c1ccc(C(F)(F)F)cc1)c1ccc(-c2ccccc2)cc1 (stereo unspecified) | inactive
C[C@@]12C(=O)OC(=O)[C@@]1(C)[C@@H]1CC[C@@H]2O1 | inactive
COCCCCC(=NOCCN)c1ccc(C(F)(F)F)cc1 | active

###

Recorded measurements of activity, negative = inhibition, one per entry
- ASSAYED SYSTEM: Cytochrome P450 2C9 (Homo sapiens)
- PROCEDURE TEXT: Cytochrome panel assay with activity outcomes; for activity, negative = inhibition: % is set by controls: 0 for no effect and ±100 for the full control effect
- EXPERIMENTAL CONTEXT: recombinant CYP, pro-luciferin dealkylation, luminescence, p450-cyp2c9; series mostly up to 57.1 µM
In all, about 16,000 compounds went through this assay and about 4,000 (25%) were called active. Roughly 26% stayed inconclusive and do not appear here. These entries were drawn from the full list.

COMPOUND | ASSAYED SYSTEM | activity, negative = inhibition
CNc1nc(-c2ccccc2OC)nc2ccccc12 | Cytochrome P450 2C9 (Homo sapiens) | 7.89% [at 2.29 µM] (inactive)
NN(CC(=O)O)CC(=O)O | Cytochrome P450 2C9 (Homo sapiens) | 17.7% [at 11.4 µM] (inactive)
Cc1ccc(S(=O)(=O)O[C@@H]2[C@H]([C@@H]3COC(C)(C)O3)O[C@H]3OC(C)(C)O[C@@H]32)cc1 | Cytochrome P450 2C9 (Homo sapiens) | 4.54% [at 11.4 µM] (inactive)
CCc1cc2c(nc1CC)CCN(CC/C(C)=N/OC[C@@H](O)[C@@H]1O[C@@H]3OC(C)(C)O[C@@H]3[C@H]1O)C2 | Cytochrome P450 2C9 (Homo sapiens) | -13.5% [at 11.4 µM] (inactive)
Cc1noc(C)c1-c1nc(N2CCOCC2)c2ccccc2n1 | Cytochrome P450 2C9 (Homo sapiens) | 4.41% [at 2.29 µM] (inactive)
CN(C)S(=O)(=O)c1nc(Cl)c2[nH]cnc2n1 | Cytochrome P450 2C9 (Homo sapiens) | 1.52% [at 11.4 µM] (inactive)
NS(=O)(=O)c1cc2c(cc1Cl)=NC(CCC(=O)O)=NS=2(=O)O | Cytochrome P450 2C9 (Homo sapiens) | 3.24% [at 11.4 µM] (inactive)
O=C(O)C1CCN(c2ncnc3ccc(-c4ccccc4C(F)(F)F)cc23)CC1 | Cytochrome P450 2C9 (Homo sapiens) | 4.43% [at 2.29 µM] (inactive)
OCCNc1ncnc2nc[nH]c12 | Cytochrome P450 2C9 (Homo sapiens) | -11.4% [at 11.4 µM] (inactive)
CO[C@@H]1COC(=O)[C@H]2CCCN2C(=O)C/C=C\[C@@H](C)[C@H](OC)COC(=O)[C@H]2CCCN2C(=O)C/C=C\[C@H]1C | Cytochrome P450 2C9 (Homo sapiens) | -0.816% [at 11.4 µM] (inactive)
CC(=O)OC[C@@H]1O[C@@H](O/N=C2/C[C@@H](O)[C@@H](O)[C@@H]3[C@@H]4C(=O)N(c5cccc(Oc6ccccc6)c5)C(=O)[C@H]4CC[C@H]23)[C@H](OC(C)=O)[C@H](OC(C)=O)[C@@H]1OC(C)=O | Cytochrome P450 2C9 (Homo sapiens) | 1.66% [at 11.4 µM] (inactive)
CN(C)Cc1ccccc1-c1nccc(Nc2ccc(F)cc2)n1 | Cytochrome P450 2C9 (Homo sapiens) | 6.01% [at 2.29 µM] (inactive)
C/C(CCN1CCc2nc(-c3ccccc3)c(-c3ccccc3)cc2C1)=N\O[C@@H](C)c1cn([C@H](CO)Cc2ccccc2)nn1 | Cytochrome P450 2C9 (Homo sapiens) | -23.3% [at 11.4 µM] (inactive)
Cc1cnc(CNc2ncnc3ccc(-c4ccoc4)cc23)cn1 | Cytochrome P450 2C9 (Homo sapiens) | 11.8% [at 2.29 µM] (inactive)
CC(=O)OC[C@@H]1O[C@H](C/C=N\OCC[C@H]2C=C[C@H](OC(C)=O)[C@@H](COC(C)=O)O2)C=C[C@@H]1OC(C)=O | Cytochrome P450 2C9 (Homo sapiens) | 19.9% [at 11.4 µM] (inactive)
c1csc(CNc2ncnc3ccc(-c4ccoc4)cc23)c1 | Cytochrome P450 2C9 (Homo sapiens) | 0.0121% [at 2.29 µM] (inactive)
CC[N+](C)(CC)CCN1C(=O)c2ccccc2S1(=O)=O | Cytochrome P450 2C9 (Homo sapiens) | -0.798% [at 11.4 µM] (inactive)
C[C@H](CN(C)C)C(O)(c1ccccc1)c1ccccc1 | Cytochrome P450 2C9 (Homo sapiens) | -5.45% [at 11.4 µM] (inactive)
OCCCNc1ncnc2[nH]ncc12 | Cytochrome P450 2C9 (Homo sapiens) | -4.6% [at 11.4 µM] (inactive)
Cn1c(=O)c2[nH]c(CSCc3ccccc3)nc2n(C)c1=O | Cytochrome P450 2C9 (Homo sapiens) | -13.3% [at 11.4 µM] (inactive)
Oc1ccc(CNCc2ccccc2)c2cccnc12 | Cytochrome P450 2C9 (Homo sapiens) | -9.84% [at 11.4 µM] (inactive)

###

- ASSAYED SYSTEM: Cytochrome P450 2C9 (Homo sapiens) (UniProt P11712)
- PROCEDURE TEXT: Cytochrome panel assay with activity outcomes
- EXPERIMENTAL CONTEXT: recombinant CYP, pro-luciferin dealkylation, luminescence, p450-cyp2c9; series mostly up to 57.1 µM
About 4,000 (25%) of roughly 16,000 compounds were called active. About 26% were inconclusive and are not listed. The call rests on the fitted dose curve; in most records, active means well fitted curve in the direction sought with a large enough effect; inconclusive means small, poorly fitted or top-dose-only effect, or effect the other way; inactive means no such curve, though single readings can be large or run the other way. A selection follows.
Outcome codes: active, inactive

COMPOUND | CLASSIFICATION
O=S(=O)(/N=C(\Sc1ccccc1)c1ccccc1)c1ccc(Cl)cc1 | active
C[C@H](NCCc1ccc(O)cc1)[C@@H](O)c1ccc(O)cc1 | inactive
O=S(=O)(/N=C(/Nc1ccc(F)cc1F)c1ccc(Cl)cc1)c1ccccc1 | inactive
CC[C@H](c1ccc(O)cc1)[C@@H](CC)c1ccc(O)cc1 | active
Cc1ccc2nc(SCC(=O)c3ccc4c(c3)OCO4)[nH]c2c1 | active
COc1ccc2nc(SCC(=O)Nc3ccc4c(c3)OCCO4)[nH]c2c1 | active
